test: basal MM1S mitochondrial membrane potential changes, profiling panel, cell-based, JC-1 fluorescence, 24 h, 100 nL compound (AID 1170); conditions: higher = more signal; further: test concentration not given here
Here, each record is paired with measured z-score data.
Write the number on its own, no unit after it.

Use these answered entries as a reference point.
[
  {
    "molecule": "Cc1ccccc1C(O)C1C=CC2C(=O)N(c3ccccc3)C(=O)C2N1Nc1ccc(C(C)C)cc1 (stereo not drawn)",
    "quantitative_result": -0.0109
  },
  {
    "molecule": "COC(=O)C(CC#Cc1ccc2c(c1)[C@]1(C(=O)N2)[C@H](C(=O)Nc2nc3ccccc3s2)[C@H]2C(=O)O[C@H](c3ccccc3)[C@H](c3ccccc3)N2[C@@H]1c1ccccc1OCCO)C(=O)OC",
    "quantitative_result": -1.63
  }
]

Returns the measured z-score for the input molecule. Input: COC(=O)[C@@]1(Cc2ccccc2)[C@H]2c3cc(C(=O)N4CCCC4)n(Cc4ccc(S(C)(=O)=O)cc4)c3C[C@H]2CN1C(=O)c1ccccc1 -0.659

Ref: PubChem BioAssay
